Molecular target: FMRFamide-like neuropeptides 14 (Ascaris)

Compound: Nc1nc2c(ncn2C2OC(COP(=O)(O)OP(=O)(O)OP(=O)(O)O)C(O)C2O)c(=O)[nH]1 (stereo unspecified)
Measurement Units: nM
Ki: 10.5

This collection of values is drawn from BindingDB's records for doi:10.1016/s0006-291x(02)03054-1.
